Exercise: for every item that follows, state its recorded Ki.
target: human DDX3 (ATPase activity) (Homo sapiens, UniProt O00571); construct: made in house; host or cells: E. coli; test: Human DDX3 ATPase activity assay (luciferase-based luminescence); assay type: biochemical; details: DDX3 ATPase activity; read-out: Ki (μM), apparent equilibrium dissociation constant for the inhibitor to the target enzyme DDX3
Sequence (O00571 whole entry): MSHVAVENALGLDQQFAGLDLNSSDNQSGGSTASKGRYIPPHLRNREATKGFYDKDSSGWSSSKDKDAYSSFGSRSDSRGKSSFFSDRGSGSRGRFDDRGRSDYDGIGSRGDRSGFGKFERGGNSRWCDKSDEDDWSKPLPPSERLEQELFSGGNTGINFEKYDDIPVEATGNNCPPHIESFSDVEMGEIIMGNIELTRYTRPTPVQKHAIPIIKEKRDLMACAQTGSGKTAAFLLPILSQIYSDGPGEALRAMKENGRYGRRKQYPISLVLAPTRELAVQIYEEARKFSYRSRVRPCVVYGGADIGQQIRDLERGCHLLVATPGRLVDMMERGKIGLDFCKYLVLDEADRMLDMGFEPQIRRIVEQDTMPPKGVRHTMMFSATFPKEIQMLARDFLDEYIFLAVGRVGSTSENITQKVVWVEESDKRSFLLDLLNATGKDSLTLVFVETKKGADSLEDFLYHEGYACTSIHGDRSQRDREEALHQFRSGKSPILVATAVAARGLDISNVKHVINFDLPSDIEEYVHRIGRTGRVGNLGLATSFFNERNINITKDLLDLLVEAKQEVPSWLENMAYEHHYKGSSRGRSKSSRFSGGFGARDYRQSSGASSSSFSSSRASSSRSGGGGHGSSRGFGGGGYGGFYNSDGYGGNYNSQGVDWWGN
Reply numerically in µM, unit not repeated.

Param readout= Ki; system= human DDX3 (ATPase activity) (Homo sapiens, UniProt O00571); entry= O=C(CCN1C(=O)/C(=C/c2ccc3c(c2)OCO3)SC1=S)Nc1ccccc1C(=O)O [FE-70] ; returns value.
0.4

Param readout= Ki; system= human DDX3 (ATPase activity) (Homo sapiens, UniProt O00571); entry= COc1cc(/C=C2\SC(=S)N(CCC(=O)Nc3ccccc3O)C2=O)cc(OC)c1OC [FE-74] ; returns value.
0.1

Param readout= Ki; system= human DDX3 (ATPase activity) (Homo sapiens, UniProt O00571); entry= O=C1Nc2ccccc2/C1=N/Nc1nc(Nc2ccccc2)nc(Nc2ccccc2)n1 [FE-56] ; returns value.
0.4
